target: hCRTH2 (Homo sapiens, UniProt Q9Y5Y4); construct: expressed in transfected cells; host or cells: HEK (human embryonic kidney) cells expressing hCRTH2; membrane preparation; experiment: Radioligand binding assay ([3H]PGD2 competition, HEK-hCRTH2 membranes); settings: [3H]PGD2 competition, Table B
Sequence (Q9Y5Y4 whole entry): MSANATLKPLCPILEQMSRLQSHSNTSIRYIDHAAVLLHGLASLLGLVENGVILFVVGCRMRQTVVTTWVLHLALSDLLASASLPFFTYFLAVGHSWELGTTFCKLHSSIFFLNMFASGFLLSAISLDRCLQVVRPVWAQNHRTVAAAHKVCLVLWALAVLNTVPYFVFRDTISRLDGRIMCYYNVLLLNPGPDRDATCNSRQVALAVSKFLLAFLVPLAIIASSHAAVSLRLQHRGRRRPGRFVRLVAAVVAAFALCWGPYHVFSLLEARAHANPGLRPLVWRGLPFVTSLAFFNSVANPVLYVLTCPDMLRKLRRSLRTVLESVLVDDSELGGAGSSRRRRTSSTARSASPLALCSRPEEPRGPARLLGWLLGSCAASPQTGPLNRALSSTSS
pKi: −log10 of the molar value.
reported metric: pKi

{"molecule": "O=C(O)CCCCc1nc2cc(C(=O)N[C@@H]3CCCc4ccncc43)ccc2nc1-c1ccc(F)cc1", "study system": "hCRTH2 (Homo sapiens, UniProt Q9Y5Y4)", "pKi": "6.70 to 7.70"}
{"molecule": "N#Cc1ccc(N2CCN(C(=O)c3ccc4nc(-c5ccc(Cl)cc5)c(CCCCC(=O)O)nc4c3)CC2)cc1", "study system": "hCRTH2 (Homo sapiens, UniProt Q9Y5Y4)", "pKi": "7.70 to 8.68"}

For reference, reported pKi for O=C(O)CCCCc1nc2cc(C(=O)NC3CCOc4c(F)cc(F)cc43)ccc2nc1-c1ccc(Cl)cc1 (stereo not shown) stands at 7.70 to 8.68

For reference, reported pKi for O=C(O)CCCCc1nc2cc(C(=O)NC3CCCc4cnccc43)ccc2nc1-c1ccccc1 (stereo not shown) stands at 7.70 to 8.68
